test: NOVARTIS: Cytotoxicity against human hepatocellular carcinoma cell line (Huh7); type: toxicity, cell-based, Huh-7; settings: Huh7 cells (hepatocellular carcinoma cell line)

| compound | CC50 |
| --- | --- |
| COc1cc(OC)cc(C(=O)Nc2cc(C(=O)N3CCC(Cc4ccccc4)CC3)ccc2N2CC3CC(C2)c2cccc(=O)n2C3)c1 (stereo not given) | 50.3 µM |
| O=C(CCl)NCCNc1ncc(C(F)(F)F)cc1Cl | 17.8 µM |
| CN(C)c1cc[n+](Cc2ccccc2)cc1 | > 100 µM |
| CC1=[N+](CC(=O)c2ccc(C)cc2)CCn2c(C)ccc21 | > 100 µM |
| Cc1ccc2c(c1)c(-c1ccccc1)c(-c1ccccc1)n2CC(O)CN1CCN(Cc2ccccc2)CC1 (stereo not given) | > 100 µM |
| CCc1ccc(C(=O)N(C)CCCNc2ccnc3cc(Cl)ccc23)cc1 | 2.86 µM |
| CC1=NNC(=O)C1C(c1ccc(Cl)cc1Cl)C1C(=O)NN=C1C (stereo not given) | > 10 µM |
| C(=NNc1nc2ccccc2[nH]1)c1cccc(Oc2ccccc2)c1 | > 100 µM |
| O=S(=O)(NC1CCCC1)c1cccc2nonc12 | > 10 µM |
| Cc1ccc(C2=NC(C(F)(F)F)(C(F)(F)F)N=C3C=CC(Cl)=CN32)cc1 | > 10 µM |

====

Below: a set of entries, each annotated with reported CC50.
experiment: NOVARTIS: Cytotoxicity against human hepatocellular carcinoma cell line (Huh7); type: toxicity, cell-based, Huh-7; conditions: Huh7 cells (hepatocellular carcinoma cell line)
observed-property: CC50

| compound | value-reported |
| --- | --- |
| CN(CCCNc1ccnc2cc(Cl)ccc12)C(=O)c1ccc2c(c1)OCO2 | > 10 µM |
| C=C1[C@@H](C)[C@H]2[C@H](Cc3ccccc3)NC(=O)[C@]23C(OC(C)=O)C=C[C@@](C)(O)C(=O)[C@@H](C)CC=C[C@H]3[C@@H]1O (stereo not given in full) | > 10 µM |
| COc1ccc(OCC(=O)Nc2cccc(-c3nc4ncccc4o3)c2)cc1 | > 100 µM |
| C[C@@H]1C[C@@H](C)C(=O)[C@@H](C(O)CC2CC(=O)NC(=O)C2)C1 (stereo not given in full) | 2.14 µM |
| CC1(C)Oc2ccc(C(=O)N3CCCC3)cc2N(CCc2ccccc2)C1=O | > 10 µM |
| N#Cc1c2c(c(N3CCN(Cc4ccc(F)cc4)CC3)n3c1nc1ccccc13)CCC2 | > 100 µM |
| CCOc1ccc(CCN2C(=S)N(c3cccc(C(F)(F)F)c3)C(=O)C2CC(=O)Nc2ccc(C(=O)OC)cc2)cc1OCC (stereo not given) | 28.5 µM |
| COc1ccc(CN2CCC(C(=O)Nc3ccc(Oc4cccnc4)cc3)CC2)cc1 | 59.4 µM |
| CCOC(=O)c1nnn(-c2nonc2N)c1-c1ccc(Cl)cc1 | > 100 µM |
| OC(CCN1CCN(C(c2ccccc2)c2ccccc2)CC1)c1ccccc1 (stereo not given) | > 100 µM |
| O=C(O)c1nsnc1C(O)C(O)C(=O)O (stereo not given) | > 10 µM |
| Cc1ccc2ccc3ccc(C)nc3c2n1 | > 100 µM |
| COc1ccc(C(OCC(=O)N2CCN(Cc3ccccc3)CC2)c2ccc(F)cc2)cn1 (stereo not given) | > 10 µM |
| Cc1ccc(S(=O)(=O)NC(=O)Nc2ccc(N(C)C)cc2)cc1 | 20.4 µM |
| C=C[C@H]1CN2CC[C@H]1C[C@H]2[C@H](O)c1ccnc2ccc(OC)cc12 | > 6.25 µM |
| Cc1ccc(-c2cn3ccccc3[n+]2-c2ccccc2)cc1 | 51.7 µM |
| Oc1ccc(-c2cnccn2)cc1CNC1CCN(Cc2ccccc2)CC1 | 82.8 µM |
| CCC(C)NC(=O)c1c[nH]c2ccc(S(=O)(=O)N(C)c3cc(C)ccc3C)cc2c1=O (stereo not given) | 59.3 µM |
| Cc1ccc(C)c(NC(=O)C2CCCN(c3nnc(N4CCCC4=O)s3)C2)c1 (stereo not given) | > 100 µM |
| COc1cc(/C=C(\C#N)c2nc3ccccc3[nH]2)ccc1OCc1ccccc1Cl | > 10 µM |

====

assay: NOVARTIS: Cytotoxicity against human hepatocellular carcinoma cell line (Huh7); assay type: toxicity, cell-based, Huh-7; conditions: Huh7 cells (hepatocellular carcinoma cell line)
observed-property: CC50

| molecule | value-reported |
| --- | --- |
| COc1cc(C2C(C(=O)OCC(C)C)=C(C)NC3=C2C(=O)CC(c2ccccc2)C3)cc(Br)c1O (stereo not given) | > 100 µM |
| Clc1cc(C=NNC2=NCCCN2)cc(Cl)n1 | > 10 µM |
| NCCNc1cc(-c2ccccc2)nc2ccccc12 | 23 µM |
| CN(C)[C@@H]1CCN(Cc2cccc(Cl)c2)C[C@@H]1CCC(=O)NCCCN1CCOCC1 | > 2.94 µM |
| Cc1ccc2nc(-c3ccc(NC(=O)c4ccc(S(=O)(=O)N5CC(C)CC(C)C5)cc4)cc3)sc2c1 (stereo not given) | > 10 µM |

====

tested on: Plasmodium falciparum; test: NOVARTIS: Inhibition of Plasmodium falciparum W2 (drug-resistant) proliferation in erythrocyte-based infection assay; assay type: functional, organism-based; settings: Plasmodium falciparum, W2; read-out: EC50
pEC50: −log10 of the molar value.
Some molecules, each annotated with its measured pEC50.
observed-property: pEC50

| molecule | observed-property | comparison-operator | value-reported |
| --- | --- | --- | --- |
| O=C(Cc1ccccc1)NCc1nnc(SCC(=O)N2N=C(c3cccs3)CC2c2ccc(F)cc2)n1Cc1ccccc1 (stereo unspecified) | pEC50 | = | 6.01 |
| Cc1nc(-c2nc3c(s2)CN(C(=O)COc2ccc(Cl)cc2)CC3)cs1 | pEC50 | = | 5.53 |
| N#Cc1ccc(NC(=O)c2cc(Cl)ccc2O)cc1 | pEC50 | = | 6.00 |
| Cc1cc(C(C)(C)C)cc(S(=O)(=O)NCCO)c1C | pEC50 | = | 6.42 |
| Nc1ccc(-c2nc(-c3ccc(N)cc3)c3ccccc3n2)cc1 | pEC50 | = | 6.12 |
| COc1ccc(C(=O)NCCc2ccc(C)cc2)cc1OC1CCN(C(C)=O)CC1 | pEC50 | = | 5.60 |
| CC(CCCNCCO)Nc1ccnc2cc(Cl)ccc12 (stereo unspecified) | pEC50 | = | 6.13 |
| CCOC(=O)c1c(C)n(-c2ccccc2)c2ccc(O)cc12 | pEC50 | = | 5.58 |
| COc1ccccc1N1CCN(C(=O)CCCCSc2nnc3c4cc(F)ccc4n(Cc4ccc(F)cc4)c3n2)CC1 | pEC50 | = | 6.68 |
| CC(=O)OC1CCC2(C)C(CCC3C2CCC2(C)C3CC(O)C2(O)C(C)=O)C1 (stereo unspecified) | pEC50 | < | 6.08 |
| COc1cccc(CNc2ncnc3sc(C(=O)NCC4COCCO4)c(C)c23)c1OC (stereo unspecified) | pEC50 | = | 5.46 |
| CCCC(c1nnnn1C1CCCCC1)N1CCN(C(=O)c2ccco2)CC1 (stereo unspecified) | pEC50 | = | 6.21 |
| CN(CCCNc1ccnc2cc(Cl)ccc12)S(=O)(=O)c1cccc2cccnc12 | pEC50 | = | 6.60 |
| COc1ccc(Nc2nc(N3CCCC3)c3ccccc3n2)cc1 | pEC50 | = | 6.48 |
| CN1CCN(C(=S)NC(=O)/C=C/c2ccc(F)cc2)CC1 | pEC50 | < | 6.06 |
| Cc1ccc(C(=O)Nc2ccc(-c3nc4cc5ccccc5cc4[nH]3)cc2)cc1[N+](=O)[O-] | pEC50 | = | 5.40 |
| CC(=NOC(=O)c1ccco1)c1cnccn1 | pEC50 | < | 5.90 |
| COc1ccc(-n2nc(C(=O)NCc3ccccc3OC)c3ccccc3c2=O)cc1 | pEC50 | = | 6.41 |
| Cc1ccc(-c2cn3ccccc3[n+]2CC(=O)c2ccc(Cl)cc2)cc1[N+](=O)[O-] | pEC50 | = | 6.30 |
| CCN1CCN(Cc2c(O)ccc3c(=O)c(Oc4ccccc4Br)c(C(F)(F)F)oc23)CC1 | pEC50 | = | 6.42 |
| Cc1cc(N)c2ccccc2[n+]1CCCCCCCCCC[n+]1c(C)cc(N)c2ccccc21 [DEQUALINIUM CHLORIDE] | pEC50 | = | 7.71 |

====

test: NOVARTIS: Cytotoxicity against human hepatocellular carcinoma cell line (Huh7); type: toxicity, cell-based, Huh-7; settings: Huh7 cells (hepatocellular carcinoma cell line)
CC50 values, listed per item
observed-property: CC50

| molecule | value-reported |
| --- | --- |
| C=CC1CN2CCC1CC2[C@H](O)c1ccnc2ccc(O)cc12 (stereo partly drawn) | > 100 µM |
| CCOCCCNC(=O)C1CCCN(S(=O)(=O)c2ccc(C)cc2)C1 (stereo not drawn) | > 10 µM |
| CC(=O)N(C1=C(N2CCOCC2)C(=O)c2ccccc2C1=O)c1cccc(Cl)c1 | 4.72 µM |
| CCCN1CCN(C(=O)CCNC(=O)Cn2cnc3ccccc3c2=O)CC1 | > 10 µM |
| O=c1oc(-c2ccccc2F)nc2sc3c(c12)CCCC3 | > 100 µM |
| COc1cc(NC(C)CCCN(Cc2ccc(Cl)cc2)C(=O)Nc2ccccc2F)c2ncccc2c1 (stereo not drawn) | > 8.25 µM |
| CCOC(=O)c1c(NC(=O)CSc2nnc(CNC(=O)c3cccs3)n2-c2ccccc2OC)sc2c1CCC2 | > 10 µM |
| CN(C)CCNc1c2c(nc3ccccc13)CCC2 | 61.4 µM |
| Cc1ccc(N=C2NC(=O)/C(=C/c3cc(C)n(-c4cccc([N+](=O)[O-])c4)c3C)S2)cc1 | > 100 µM |
| CN(C)c1ccc(N2C(N)=NC(N)=NC23CCCC3)cc1 | > 10 µM |
| C=CCNCc1cc(-c2cc(OC)ccc2OC)ccc1O | > 10 µM |
| Cn1nc(C(F)(F)F)c(-c2ccc(Br)cc2)c1NC(=O)Nc1ccc(F)cc1F | 42.8 µM |
| COc1cc(NC(=O)Cn2ncc3c(=O)oc4ccccc4c32)cc(OC)c1OC | > 100 µM |
| COc1cc(C(=O)OCCC2CCC[N+]3(C)CCCCC23)cc(OC)c1OC (stereo not drawn) | > 100 µM |
| CN1CCN(c2nc(Nc3ccc(O)cc3)nc3ccccc23)CC1 | 41.8 µM |
| CC(C)N(C(=O)Cn1ccc(=N)c2ccccc21)C(C)C | > 100 µM |
| CCOC(=O)c1c(NC(C)=O)sc2c1CCN(C(C)C)C2 | > 100 µM |
| Cc1oc(-c2cccs2)nc1CN1CCC(CO)(CCOc2ccccc2)CC1 | > 100 µM |
| Cc1ccc2oc(=O)c3cnn(CC(=O)Nc4ccc(F)cc4Cl)c3c2c1 | > 10 µM |
| CCN1CCN(Cc2cc(=O)oc3cc(-c4ccccc4)c(O)cc23)CC1 | 12.5 µM |
| N#Cc1sccc1NS(=O)(=O)c1ccc(Cl)cc1 | > 10 µM |
| Clc1ccc(Nc2nc(NCc3ccco3)c3ccccc3n2)cc1 | 15.6 µM |
| CCOC(=O)c1ccc(OCC2c3cc(OC)c(OC)cc3CCN2C(=O)c2ccc([N+](=O)[O-])cc2)cc1 (stereo not drawn) | > 100 µM |
| COc1ccc(N2C(N)=NC(N)=NC2(C)C)cc1 | > 10 µM |
| C1CCC(NP2(NC3CCCCC3)=NP(NC3CCCCC3)(NC3CCCCC3)=NP(NC3CCCCC3)(NC3CCCCC3)=N2)CC1 | 41.4 µM |
| Cc1cc([N+](=O)[O-])ccc1-c1ccc(C(=O)Nc2ccc(-c3nc4ccccc4[nH]3)cc2)o1 | > 100 µM |
| Cc1ccc2nc3c(c(NCCCN(C)C)c2c1)CCC3 | > 10 µM |
| CCCCN(CC(=O)N1c2ccccc2-n2cccc2C1c1ccc(OC)cc1)C(=O)Nc1cccc(F)c1 (stereo not drawn) | > 100 µM |
| O=C(NC1CCCCC1)c1noc2c1CCCCC2 | > 100 µM |
| O=C(CSc1nc2ccccc2[nH]1)Nc1ccc(Cl)cc1Cl | > 10 µM |
| Cc1noc(C)c1C(=O)N1CCC(O)(c2ccccn2)CC1 | > 10 µM |
| CC(=O)Nc1ccc(Oc2ccc(C(c3ccccc3)(c3ccccc3)c3ccc(Oc4ccc(NC(C)=O)cc4)cc3)cc2)cc1 | > 10 µM |
| CC(=O)c1cc(CN2CCC(C(=O)Nc3ccc(-n4nc(C)cc4C)cc3)CC2)cs1 | > 100 µM |
| COc1cccc(CCN2Cc3ccc(C(=O)NC(C)C)cc3N=C2c2ccc(C)cc2)c1 | > 10 µM |
| Oc1ccc(-c2ccccn2)cc1CNC1CCN(Cc2ccccc2)CC1 | 21 µM |
| O=C(NNC(=S)NCc1ccco1)C(F)(F)F | > 100 µM |
| Cc1cc(C)c(S(=O)(=O)N2CCC(NC(=O)c3ccccc3)CC2)c(C)c1 | > 100 µM |
| CCCc1cc2c(=O)c(-c3cc4ccccc4o3)coc2cc1OC(C)C(=O)OCC (stereo not drawn) | > 10 µM |
| NCC(=O)N1CCn2c(nc(-c3ccccc3)c2Nc2ccc3c(c2)OCO3)C1 | > 100 µM |
| Clc1cccc(CCNC2CCN(CCc3ccccc3)CC2)c1 | 12.4 µM |
| O=C(CC(=O)N1CCOCC1)Nc1ccc2nc3n(c(=O)c2c1)CCCCC3 | > 100 µM |
| CCCCNC(=O)c1ccc2c(c1)N=C(c1cccnc1)N(CCN1CCOCC1)C2 | > 10.4 µM |
| CN(C)CCNc1cc(-c2ccc3ccccc3c2)nc2ccccc12 | > 100 µM |
